# System: CCRF-CEM leukemia
# Assay notes: NCI tumour cell line growth inhibition, 48 h
Reported TGI values follow for various molecules

These solved cases illustrate the format of a correct answer.
[[record]]
molecule = "COc1ccc(-c2sc(Br)c3c2C(=O)C2OC(=O)NC32)cc1OC (stereo not drawn)"
readout_value = "> 100 µM"

[[record]]
molecule = "Cc1nc2sc(C(=O)Nc3cccc(Br)c3C)c(N)c2cc1C(O)c1ccccc1 (stereo not drawn)"
readout_value = "> 100 µM"

[[record]]
molecule = "CC1(C)OCC(CO)(CO)CO1"
readout_value = "> 100 µM"

[[record]]
molecule = "CCCCCCCCOC(=O)C12Oc3ccc(-c4ccc5c(c4O)C(O)=C4C(=O)CC(C)C(O)C4(C(=O)OCCCCCCCC)O5)c(O)c3C(O)=C1C(=O)CC(C)C2O (stereo not drawn)"
readout_value = "17.9 µM"


Which TGI reading was recorded for the molecule O=C(NN1C(=O)CS(=O)(=O)C1c1ccc(Cl)c(Cl)c1)c1ccncc1 (stereo not drawn) ?
> 86.1 µM

###

# Test system: CCRF-CEM leukemia
# Assay notes: NCI tumour cell line growth inhibition, 48 h
Reported TGI values follow for various compounds

[[record]]
compound = "O=C(O)CCC(NC(=O)c1ccc(Nc2cnc3cc(C(F)(F)F)ccc3n2)cc1)C(=O)O (stereo not given)"
system_name = "CCRF-CEM leukemia"
readout_value = "> 100 µM"

[[record]]
compound = "CCO/C(O)=C(/C(=N)N1CCOCC1)C(=O)NC(C)C"
system_name = "CCRF-CEM leukemia"
readout_value = "> 100 µM"

[[record]]
compound = "O=C1C=C(c2ccccc2)OC1C1Sc2ccccc2NC1=O (stereo not given)"
system_name = "CCRF-CEM leukemia"
readout_value = "> 24.4 µM"

[[record]]
compound = "CN(C)NC(=O)/C(=C/c1ccc(Cl)cc1)NC(=O)c1ccccc1"
system_name = "CCRF-CEM leukemia"
readout_value = "> 100 µM"

[[record]]
compound = "CCc1n[nH]c(=O)n1CC"
system_name = "CCRF-CEM leukemia"
readout_value = "> 100 µM"


Which TGI reading was recorded for the compound CN(C)[C@@H]1C(=O)C(C(=O)NCNc2nc3n[nH]nc3c(=O)[nH]2)=C(O)[C@@]2(O)C(=O)C3=C(O)c4c(O)cccc4[C@@](C)(O)[C@H]3C[C@@H]12 ?
> 17.7 µM

And the next one, ICC1CCCO1 (stereo not given) ?
> 100 µM

And the next one, Cn1[nH]cc2ccc3nc4ccccc4c(=O)c3c21 ?
> 100 µM

And the next one, Cc1[nH]c(C)c(CN(C)C)c1CN(C)C ?
> 100 µM

And the next one, C[P+]1(Cc2ccccc2)CCCC1 ?
> 100 µM

And the next one, CC(C)(C)[Si](C)(C)OCC1OC(n2cnc3c(=O)[nH]cnc32)CC1O (stereo not given) ?
> 100 µM

###

# Tested on: RXF-631 renal
# Assay notes: NCI tumour cell line growth inhibition, 48 h
Measured attribute: TGI (µM)
Kindly provide the numeric value in µM only, without the unit symbol.

These solved cases illustrate the format of a correct answer.
[[record]]
compound = "Cc1ccccc1NC(=O)Cc1nc2ccccc2s1"
readout_value = 32.3

[[record]]
compound = "CN(C)NC1=C([N+](=O)[O-])C=NN(c2ccccc2)C1"
readout_value = 3.33


Which TGI reading was recorded for the compound CCN(CC)CCNc1ccc2ncn3c4ccc(OC)cc4c(=O)c1c23 ?
15.8

And the next one, CC1OC(n2cc(C(F)(F)F)c(=O)[nH]c2=O)C=CC1=O (stereo not given) ?
25.3

And the next one, Cc1cccc(NC(=O)C(=O)C(C2OC(=O)c3ccccc32)[N+](=O)[O-])c1C (stereo not given) ?
33.7
